target: full-length RORγt in Jurkat cells (Homo sapiens (Human), UniProt P51449); assay: RORγt 5xRORE Assay in Jurkat Cells (Assay 2); format: cell-based; settings: Nanoluc luciferase reporter, 16-18 hrs, Table 8, read-out: RORγt5X IC50 Range*
Sequence (P51449 other isoform, or with tags, fused parts or gaps): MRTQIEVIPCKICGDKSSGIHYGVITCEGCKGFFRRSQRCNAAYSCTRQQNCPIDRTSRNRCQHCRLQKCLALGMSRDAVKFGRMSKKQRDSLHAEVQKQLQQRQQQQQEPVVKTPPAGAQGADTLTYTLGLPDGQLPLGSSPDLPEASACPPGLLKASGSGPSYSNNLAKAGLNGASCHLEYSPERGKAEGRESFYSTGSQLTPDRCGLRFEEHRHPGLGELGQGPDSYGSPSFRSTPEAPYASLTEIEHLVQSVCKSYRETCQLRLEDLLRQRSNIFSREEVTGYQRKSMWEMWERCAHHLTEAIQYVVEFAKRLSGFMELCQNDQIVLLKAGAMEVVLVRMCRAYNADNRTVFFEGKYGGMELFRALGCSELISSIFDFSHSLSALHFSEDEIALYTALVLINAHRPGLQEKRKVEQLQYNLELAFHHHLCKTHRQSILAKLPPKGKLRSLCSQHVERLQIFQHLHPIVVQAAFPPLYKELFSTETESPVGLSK
pIC50: −log10 of the molar value.
Assign pIC50 to each entry below.

The examples below pair each entry with its known result.
cpd_smiles=CCS(=O)(=O)c1ccc(CC(=O)Nc2nc3c(s2)CN(Cc2ccc(C(F)(F)F)nc2C)[C@H]3C(C)C)cc1 measurement_type=pIC50 reported_value="> 7.00"
cpd_smiles=CCS(=O)(=O)c1ccc(CNC(=O)c2nc3c(s2)CN(C[C@@H]2CN(C(=O)OC(C)(C)C)CCO2)[C@H]3C(C)C)cc1 measurement_type=pIC50 reported_value="> 7.00"
cpd_smiles=CCS(=O)(=O)c1ccc(CC(=O)Nc2nc3c(s2)CN(Cc2ccc(C#N)c(OC)n2)[C@H]3C(C)C)cc1 measurement_type=pIC50 reported_value="> 7.00"

Could you now look at the following compound, please?
Requested read-out pIC50, target or system full-length RORγt in Jurkat cells (Homo sapiens (Human), UniProt P51449), entry `CCS(=O)(=O)c1ccc(CC(=O)Nc2nc3c(s2)CN(Cc2ccc(C(F)(F)F)cc2)[C@H]3C(C)C)nc1`
> 7.00

---

biological target: full-length RORγt in Jurkat cells (Homo sapiens (Human)); experiment: RORγt 5xRORE Assay in Jurkat Cells (Assay 2); format: cell-based; settings: Nanoluc luciferase reporter, 16-18 hrs, Table 9, read-out: RORγt5X IC50 Range*
Assign IC50 to each entry below.

compound=CCS(=O)(=O)c1cnc(CC(=O)Nc2nc3c(s2)CN(Cc2ccc(C(F)(F)F)cc2)[C@H]3C(C)C)nc1 study_target="full-length RORγt in Jurkat cells (Homo sapiens (Human))" measurement_type=IC50 reported_value="100 to 1000 nM"
compound=CCS(=O)(=O)c1ccc(CC(=O)Nc2nc3c(s2)CN(Cc2ccc(CO)cc2)[C@H]3C(C)C)cc1 study_target="full-length RORγt in Jurkat cells (Homo sapiens (Human))" measurement_type=IC50 reported_value="100 to 1000 nM"
compound="CCS(=O)(=O)c1ccc(CC(=O)Nc2nc3c(s2)CN([C@H]2COc4cc(Cl)ccc42)[C@H]3C(C)C)cc1 (relative stereo)" study_target="full-length RORγt in Jurkat cells (Homo sapiens (Human))" measurement_type=IC50 reported_value="< 100 nM"

Quick request: IC50 for each listed item, please.
1. CCS(=O)(=O)c1ccc(CC(=O)Nc2nc3c(s2)CN(C[C@H]2CC[C@@H](C(=O)OC)CC2)[C@H]3C(C)C)cc1 (single isomer, unassigned)
2. CC(C)[C@H]1c2nc(NC(=O)Cc3ccc(S(C)(=O)=O)cc3)sc2CN1[C@@H](C)c1ccc(Cl)cn1 (single isomer, unassigned)
3. CC(C)[C@H]1c2nc(C(=O)NCc3ccc(S(C)(=O)=O)cc3)sc2CN1Cc1ccc(C#N)c(F)c1
4. CCS(=O)(=O)c1ccc(CC(=O)Nc2nc3c(s2)CN(C[C@H]2C[C@H](C#N)C2)[C@H]3C(C)C)cc1 (relative stereo)

1: > 1000 nM; 2: 100 to 1000 nM; 3: 100 to 1000 nM; 4: > 1000 nM

---

Target: recombinant RORγ Ligand Binding Domain (LBD) protein (Homo sapiens (Human), UniProt P51449)
Test: Radio-Ligand RORγ Binding Assay (Assay 1)
Conditions: competition with 25-hydroxy [26,27-3H]-cholesterol, SPA; Table 9; read-out: RORγ Binding Ki Range*
Protocol: Radio-Ligand RORγ Binding Assay (Assay 1) Compounds of the present invention were tested for ability to bind to RORγ in a cell-free competition assay with commercially available radio-ligand (RL), 25-hydroxy [26,27-^3H]— cholesterol (PerkinElmer, Cat. # NET674250UC), for a ligand binding site on a recombinant RORγ Ligand Binding Domain (LBD) protein expressed as a 6×His-Glutathione-S-Transferase (GST) fusion (“6×His” disclosed as SEQ ID NO: 2). […]
pKi: −log10 of the molar value.
measurement-type: pKi

The examples below pair each entry with its known result.
compound=Cc1ncc(CN2Cc3sc(NC(=O)Cc4ccc(S(C)(=O)=O)cc4)nc3[C@@H]2C(C)C)cn1 measurement_type=pKi reported_value="6.00 to 7.00"
compound=CC[C@H]1c2nc(NC(=O)Cc3ccc(S(=O)(=O)CC)cc3)sc2CN1[C@@H](C)c1ncc(Cl)cc1F measurement_type=pKi reported_value="> 7.00"
compound=CCS(=O)(=O)c1ccc(CC(=O)Nc2nc3c(s2)CN(Cc2ccc(C(F)(F)F)c(F)c2)[C@@H]3C(C)C)cc1 measurement_type=pKi reported_value="> 7.00"

Quick request: pKi for each listed item, please.
1. CCS(=O)(=O)c1ccc(CC(=O)Nc2nc3c(s2)CN(Cc2cc(OC(F)F)ccc2F)[C@@H]3C(C)C)cc1
2. CCS(=O)(=O)c1ccc(CC(=O)Nc2nc3c(s2)CN(C[C@H]2CC[C@H](C(F)(F)F)NC2)[C@H]3C(C)C)nc1 (single isomer, unassigned) [drawing 211]
3. CCS(=O)(=O)c1ccc(CC(=O)Nc2nc3c(s2)CN(Cc2ccc(S(C)(=O)=O)cc2)[C@@H]3C(C)C)cc1

1. > 7.00
2. 6.00 to 7.00
3. 6.00 to 7.00

Which pKi value belongs to `CCS(=O)(=O)c1ccc(CC(=O)Nc2nc3c(s2)CN(Cc2ccc(CO)cc2)[C@H]3C(C)C)cc1` ?
> 7.00
